EXPERIMENTAL_TARGET: UniProt:Q9NWZ3
Sequence (Q9NWZ3 1-460): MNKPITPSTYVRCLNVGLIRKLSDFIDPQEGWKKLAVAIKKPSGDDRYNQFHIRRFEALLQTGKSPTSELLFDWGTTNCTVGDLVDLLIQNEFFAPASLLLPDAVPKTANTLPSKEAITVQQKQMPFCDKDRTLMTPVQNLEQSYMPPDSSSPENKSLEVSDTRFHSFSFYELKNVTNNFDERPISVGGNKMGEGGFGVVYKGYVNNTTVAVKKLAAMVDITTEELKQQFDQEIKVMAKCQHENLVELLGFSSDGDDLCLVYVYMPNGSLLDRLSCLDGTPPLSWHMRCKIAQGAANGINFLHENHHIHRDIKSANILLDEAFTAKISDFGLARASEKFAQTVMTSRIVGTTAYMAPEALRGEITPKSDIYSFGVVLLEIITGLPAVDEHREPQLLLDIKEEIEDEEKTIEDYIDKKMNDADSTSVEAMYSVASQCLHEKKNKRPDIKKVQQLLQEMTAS
RUN_DESCRIPTION: IRAK-4 ELISA, PBMC degradation
Assay type: cell-based
Parameters: endogenous in cells; host or cells: PBMC
CONDITION_DETAILS: treated overnight
Quick reference for Dmax among some compounds

Example cases with answers are listed next.
CC(C)Oc1cc2c(cc1NC(=O)c1cnn3cccnc13)CN(C1CCC(N(C)C3CCN(c4ccc5c(c4)C(=O)N(C4CCC(=O)NC4=O)C5=O)CC3)CC1)C2=O (centres unmarked) [Example 316] | ≥ 90%
CC(C)Oc1cc2c(cc1NC(=O)c1cnn3cccnc13)CN(C[C@@H](F)C1CCN(CC3CN(c4cccc5c4n(C)c(=O)n5C4CCC(=O)NC4=O)C3)CC1)C2=O (some centres unmarked) [Example 382] | ≥ 90%
O=C1CCC(N2Cc3c(ccc(N4CCC(CN5CCC(n6cc7cc(NC(=O)c8cnn9cccnc89)c(N8CCN(CC(F)F)CC8)cc7n6)CC5)CC4)c3F)C2=O)C(=O)N1 (centres unmarked) [Example 158] | ≥ 90%
O=C1CCC(N2C(=O)c3ccc(N4CC5(C4)CN([C@H]4CC[C@H](n6cc7cc(NC(=O)c8cnn9cccnc89)c(OCC8CC8)cc7n6)CC4)C5)cc3C2=O)C(=O)N1 (some centres unmarked) [Example 360] | ≥ 90%

# input for lookup
// query Find Dmax for CC(C)Oc1nc2nn(C3CCN(CC4(F)CN(c5ccc6c(c5)C(=O)N(C5CCC(=O)NC5=O)C6=O)C4)CC3)cc2cc1NC(=O)c1cnn2cccnc12 (centres unmarked) [Example 219] on UniProt:Q9NWZ3 and write it down.
// result 80 to 90%
